Test system: HCT-116
Test: NCI tumour cell line growth inhibition, 48 h
Active and inactive are the calls of the source. No stated cut-off is given here; in the data, active = GI50 up to about 1.1 µM and inactive = higher.
Reported GI50 values for a set of molecules
readout kind: GI50

[[record]]
molecule = "CCCCCCC(=O)OC[n+]1cccc(-c2c(COC(=O)NC(C)C)c(COC(=O)NC(C)C)c3n2CCC3)c1"
study_system = "HCT-116"
result = "32.8 µM (inactive)"

[[record]]
molecule = "O=C(CCNC(=O)OCc1ccccc1)OCCCNC(=O)OCc1ccccc1"
study_system = "HCT-116"
result = "> 100 µM (inactive)"

[[record]]
molecule = "CC1C=C(OC(=O)c2ccccc2)C(=O)C(n2cc(F)c(=O)[nH]c2=O)O1 (stereo not drawn)"
study_system = "HCT-116"
result = "38.5 µM (inactive)"

[[record]]
molecule = "CS(=O)(=O)CS(=O)(=O)OCCCl"
study_system = "HCT-116"
result = "166 µM (inactive)"

[[record]]
molecule = "Cc1cc(=O)oc2c(C)c3oc(CBr)cc3cc12"
study_system = "HCT-116"
result = "18.5 µM (inactive)"

[[record]]
molecule = "COc1ccc(C(=O)/C=C/c2ccc(OCCCCCCCCCCOc3ccc(/C=C/C(=O)c4ccc(OC)cc4)cc3)cc2)cc1"
study_system = "HCT-116"
result = "> 100 µM (inactive)"

[[record]]
molecule = "Clc1ccc(/C=N/c2ccc3c(c2)Cc2ccccc2-3)c(Cl)c1"
study_system = "HCT-116"
result = "58.1 µM (inactive)"

[[record]]
molecule = "N#CCc1ccc(C(C#N)/C(CCCC(=O)Nc2cccc([N+](=O)[O-])c2)=N\\NC(=O)NN)cc1 (stereo not drawn)"
study_system = "HCT-116"
result = "> 100 µM (inactive)"

[[record]]
molecule = "CCC1C(C(=O)Nc2ccccc2C)=C(C)NC(C)=C1c1ccccc1C (stereo not drawn)"
study_system = "HCT-116"
result = "> 48.6 µM (inactive)"

[[record]]
molecule = "O=C1C=C(Nc2cccnc2)c2ccccc2C1=O"
study_system = "HCT-116"
result = "11.6 µM (inactive)"

[[record]]
molecule = "COc1ccc(C(=O)/C=C/c2ccc(OCC(=O)O)cc2)cc1"
study_system = "HCT-116"
result = "47.1 µM (inactive)"

[[record]]
molecule = "CC(C)N1CCN(c2ccc(OCC3COC(Cn4cncn4)(c4ccc(Cl)cc4Cl)O3)cc2)CC1 (stereo not drawn)"
study_system = "HCT-116"
result = "11.2 µM (inactive)"

[[record]]
molecule = "CCOC(=O)c1c(CN2CCCC2)n(-c2ccccc2)c2cc(Br)c(OC)cc12"
study_system = "HCT-116"
result = "11.2 µM (inactive)"

[[record]]
molecule = "COc1cc2c(cc1O)NC(=O)[C@@H]1CCCN1C2=O"
study_system = "HCT-116"
result = "> 100 µM (inactive)"

[[record]]
molecule = "CC(C)[C@H]1NC(=O)[C@H]2N=C(O[C@@H]2C)[C@@H]2CCCN2C(=O)[C@H](Cc2ccccc2)NC(=O)[C@@H]2CSC(=N2)[C@@H](Cc2ccccc2)NC(=O)[C@@H]2CSC1=N2"
study_system = "HCT-116"
result = "90.8 µM (inactive)"

[[record]]
molecule = "CC1(C)CC(=O)c2c(nc3c(ccc4ccccc43)c2-c2ccc(NC(=O)CCCC(=O)Nc3ccc(-c4c5c(nc6c4ccc4ccccc46)CC(C)(C)CC5=O)cc3)cc2)C1"
study_system = "HCT-116"
result = "> 100 µM (inactive)"

[[record]]
molecule = "O=C1CCCN1CCC/N=c1/cc2n(-c3ccc(Cl)cc3)c3ccccc3nc-2cc1Nc1ccc(Cl)cc1"
study_system = "HCT-116"
result = "7.26 µM (inactive)"

[[record]]
molecule = "CC1CN(c2cc3c(cc2F)c(=O)c(C(=O)O)cn3-c2ccc(N3CCN(C)CC3)cn2)CC(C)N1 (stereo not drawn)"
study_system = "HCT-116"
result = "> 100 µM (inactive)"

